Origin of measurements: PubChem BioAssay AID256

Tested on: CD2F1 mice, L1210 leukemia ip, survival T/C
MEASUREMENT PROTOCOL: NCI In Vivo Anticancer Drug Screen. Data for tumor model L1210 Leukemia (intraperitoneal) in CD2F1 (CDF1) mice
CONDITION DESCRIPTION: endpoint: mean survival time; dose: 200.0 mg/kg/injection; schedule: Q01DX001 (ip); vehicle: saline with Tween-80; higher = longer survival
Inconclusive results and toxic doses are left out.
RESULT TYPE: T/C

[
  {
    "COMPOUND": "ClC(Cl)(Cl)c1ccc(C(SCc2ccccc2)SCc2ccccc2)cc1",
    "SYSTEM TESTED": "CD2F1 mice, L1210 leukemia ip, survival T/C",
    "ENDPOINT VALUE": "89 % of control"
  },
  {
    "COMPOUND": "CCCCCCCCCCCCCCCC[N+]1(CCC)CCSCC1",
    "SYSTEM TESTED": "CD2F1 mice, L1210 leukemia ip, survival T/C",
    "ENDPOINT VALUE": "110 % of control"
  },
  {
    "COMPOUND": "CC(C)C1C=C2CCC3C(C)(C(=O)O)CCCC3(C)C2CC1 (configuration not stated)",
    "SYSTEM TESTED": "CD2F1 mice, L1210 leukemia ip, survival T/C",
    "ENDPOINT VALUE": "94 % of control"
  },
  {
    "COMPOUND": "CCCCCCCCCCCCC/C=N/NC(=O)c1ccc[n+](C)c1",
    "SYSTEM TESTED": "CD2F1 mice, L1210 leukemia ip, survival T/C",
    "ENDPOINT VALUE": "98 % of control"
  },
  {
    "COMPOUND": "CC(C)(O)C#CC#CC(C)(C)O",
    "SYSTEM TESTED": "CD2F1 mice, L1210 leukemia ip, survival T/C",
    "ENDPOINT VALUE": "96 % of control"
  },
  {
    "COMPOUND": "CS(=O)(=O)OCCCN(CCCOS(C)(=O)=O)c1ccc(C=Nc2ccc(-c3csc(COc4ccc(Br)cc4)n3)cc2)cc1",
    "SYSTEM TESTED": "CD2F1 mice, L1210 leukemia ip, survival T/C",
    "ENDPOINT VALUE": "89 % of control"
  },
  {
    "COMPOUND": "COC(=O)C1CC2C(=O)CCCCCCC2C1O (configuration not stated)",
    "SYSTEM TESTED": "CD2F1 mice, L1210 leukemia ip, survival T/C",
    "ENDPOINT VALUE": "101 % of control"
  }
]
